FYI, the data here is from the supplement of paper PMC10127200.

tested on: A549; test: Euclidean distance of Cell Painting phenotypic profile (signed KS, 77 features) to DMSO centroid (dimensionless distance); 5 or 10 uM (library dependent); higher = stronger phenotypic change vs DMSO (phenoactivity); conditions: 48 h
Counter-ions that a name gives are not always drawn.
Classification field: enter 1 for Euclidean distance values not below 1, -1 for values below it.

| molecule | answerLabel |
| --- | --- |
| C[C@H](CCC(=O)NCCS(=O)(=O)O)[C@H]1CC[C@H]2[C@@H]3[C@@H](O)C[C@@H]4C[C@H](O)CC[C@]4(C)[C@H]3CC[C@]12C | 1 |
| Cc1cccc(C)c1NC(=O)c1cc(S(N)(=O)=O)c(Cl)cc1O [Xipamide] | -1 |
| Cc1ccc(NC(=O)C2(c3ccc4c(c3)OC(F)(F)O4)CC2)nc1-c1cccc(C(=O)O)c1 | -1 |
| Oc1ccc(-c2nc(-c3ccc(F)cc3)c(-c3ccncc3)[nH]2)cc1 | -1 |
| Oc1ccc2c(c1)CC[C@H](c1ccccc1)[C@@H]2c1ccc(OCCN2CCCC2)cc1 [Lasofoxifene Tartrate] | 1 |

Item Cn1nnc2c(C(N)=O)ncn2c1=O [Temozolomide] with Euclidean distance of 1 or above?
-1

# check: Euclidean distance of Nc1[nH]cnc2ncnc1-2 [Adenine HCl] is greater than or equal to 1
-1

Does the molecule NCCc1ccc(O)c(O)c1 [Dopamine HCl] have recorded Euclidean distance that is 1 or more?
-1

Assess whether reported Euclidean distance for CC(=O)c1ccc(S(=O)(=O)NC(=O)NC2CCCCC2)cc1 [Acetohexamide] sits at 1 or higher.
-1
